Biological target: O-acyltransferase (Oryctolagus cuniculus, UniProt G1SFD9)
Sequence (G1SFD9 1-524): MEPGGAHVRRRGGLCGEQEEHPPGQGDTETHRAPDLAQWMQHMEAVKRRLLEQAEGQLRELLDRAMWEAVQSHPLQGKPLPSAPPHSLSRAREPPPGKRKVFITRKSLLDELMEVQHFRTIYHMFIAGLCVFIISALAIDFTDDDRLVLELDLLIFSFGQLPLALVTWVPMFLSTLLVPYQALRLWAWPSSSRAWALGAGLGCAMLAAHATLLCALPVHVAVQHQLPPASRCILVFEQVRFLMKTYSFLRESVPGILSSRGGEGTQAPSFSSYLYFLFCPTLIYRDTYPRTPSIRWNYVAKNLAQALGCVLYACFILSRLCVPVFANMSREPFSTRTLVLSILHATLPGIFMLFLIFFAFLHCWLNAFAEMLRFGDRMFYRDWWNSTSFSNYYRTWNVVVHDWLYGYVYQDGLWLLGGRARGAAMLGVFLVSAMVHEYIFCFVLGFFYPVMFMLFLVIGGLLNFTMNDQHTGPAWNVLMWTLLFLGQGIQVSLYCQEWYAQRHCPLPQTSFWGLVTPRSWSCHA
Assay: In vitro inhibition of acyl coenzyme A:cholesterol acyltransferase, in intestinal microsomes isolated from cholesterol-fed rabbits
Design: species or system Intestine
# key: entry, value: log10 IC50
Answers are given as log10 of IC50 in µM.

Take a look at these entries with their results.
INSERT INTO results (structureassmiles, measuredresult) VALUES
  ('CCCCCCCCCCC(C)(C)C(=O)Nc1c(F)cc(F)cc1F', -0.59),
  ('CCCCCCCC/C=C/CCCCCCCC(=O)Nc1ccc(F)cc1F', 1.51),
  ('CCCCCCCCCCC(C)(C)C(=O)Nc1ccc(C)c(C)c1', 0.22),
  ('CCCCCCCC/C=C/CCCCCCCC(=O)Nc1ccc(OC)cc1OC', 0.48),
  ('CCCCCCCCCCC(C)(C)C(=O)Nc1c(C)cccc1Cl', -0.12),
  ('CCCCCCCCCCCCC(C)(C)C(=O)Nc1c(OC)cc(OC)cc1OC', -1.20),
  ('CCCCCCCC/C=C/CCCCCCCC(=O)Nc1c(C)cc(C)cc1C', -0.15),
  ('CCCCCCCC/C=C/CCCCCCCC(=O)Nc1ccccc1OC', 0.90);

If you can, please state the reported log10 IC50 value of CCCCCCCC/C=C/CCCCCCCC(=O)Nc1ccc(C)cc1C(=O)OC .
0.96

If you can, please state the reported log10 IC50 value of CCCCCCCCCCC(C)(C)C(=O)Nc1c(C)cccc1C(C)C .
-0.62
